test: Human 5-HTP gastrointestinal regional absorption study (plasma 5-HTP); format: in vivo; details: both sexes, plasma, other: intra-colonic by colonoscopy, intra-colonic 200 mg, read-out: Absolute bioavailability F
measurement_type: bioavailability (%)
Report the figure in % without appending any unit label.

Q. I would be grateful if you could share the reported bioavailability for N[C@@H](Cc1c[nH]c2ccc(O)cc12)C(=O)O [5-HTP, 5-hydroxytryptophan] .
A. 4

###

experiment: Human 5-HTP gastrointestinal regional absorption study (plasma 5-HTP); assay type: in vivo; settings: both sexes, plasma, other: upper GI (oral) and intra-colonic compared, 200 mg, read-out: Relative upper GI tract:colon bioavailability (RBA)
measurement_type: Relative upper GI:colon bioavailability (%)
Report as a plain number; the unit % is understood.

Q. Please look up its Relative upper GI:colon bioavailability: N[C@@H](Cc1c[nH]c2ccc(O)cc12)C(=O)O [5-HTP, 5-hydroxytryptophan]
A. 20
